# PROTOCOL TEXT: Microsomal metabolic stability, mouse
# Type: in vitro ADME
# TEST PARAMETERS: pooled liver microsomes, pH 7.4, read-out: Metab. stab, mouse t1/2
VALUE TYPE: half-life at 1 μM

In [3]: df
Out[3]:
                                   molecule       result
0   Cc1ccccc1CCNS(=O)(=O)c1c(Cl)cc(Br)cc1Cl   2 to 3 min
1  Cc1ccccc1C(F)CNS(=O)(=O)c1c(Cl)cc(Br)cc1Cl (racemic)  6 to 20 min
2    Cc1cc(C)c(S(=O)(=O)NCCc2ccccc2O)c(C)c1   2 to 4 min
